Tested on: FXR:RXRa (NR concentration 270 nM, RXRa partner concentration 90 nM)
assay.remarks: PBM binding z-score (relative to random genomic background probes); higher = stronger binding; sequences stand for … in GC…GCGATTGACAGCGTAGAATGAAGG
measurement.label: PBM binding z-score
Give the value as a plain number.

Return PBM binding z-score (reported value) for this sequence: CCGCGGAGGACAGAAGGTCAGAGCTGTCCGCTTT
1.22

Return PBM binding z-score (reported value) for this sequence: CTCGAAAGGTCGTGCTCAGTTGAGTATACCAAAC
4.37

Return PBM binding z-score (reported value) for this sequence: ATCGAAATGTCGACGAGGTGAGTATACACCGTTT
-0.0573

Return PBM binding z-score (reported value) for this sequence: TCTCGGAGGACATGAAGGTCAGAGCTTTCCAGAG
0.472

Return PBM binding z-score (reported value) for this sequence: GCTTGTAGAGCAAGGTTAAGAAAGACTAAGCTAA
-0.0313

Return PBM binding z-score (reported value) for this sequence: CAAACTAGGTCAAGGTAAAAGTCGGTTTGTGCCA
3.54

Return PBM binding z-score (reported value) for this sequence: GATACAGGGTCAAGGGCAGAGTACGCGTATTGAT
6.94

Return PBM binding z-score (reported value) for this sequence: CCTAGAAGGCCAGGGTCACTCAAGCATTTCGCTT
2.51

Return PBM binding z-score (reported value) for this sequence: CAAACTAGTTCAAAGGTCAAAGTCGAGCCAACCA
7.5

Return PBM binding z-score (reported value) for this sequence: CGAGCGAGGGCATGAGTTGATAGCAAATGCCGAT
0.5

Return PBM binding z-score (reported value) for this sequence: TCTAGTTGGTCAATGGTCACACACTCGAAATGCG
0.812

Return PBM binding z-score (reported value) for this sequence: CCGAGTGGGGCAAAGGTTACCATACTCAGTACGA
1.45

Return PBM binding z-score (reported value) for this sequence: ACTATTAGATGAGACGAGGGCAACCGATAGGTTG
0.455

Return PBM binding z-score (reported value) for this sequence: TCATATAGGCAAAAGGTGAAAGTCGGTGTGGTAA
1.44

Return PBM binding z-score (reported value) for this sequence: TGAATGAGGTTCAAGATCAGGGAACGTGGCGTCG
0.995

Return PBM binding z-score (reported value) for this sequence: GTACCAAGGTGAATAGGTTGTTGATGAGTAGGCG
0.414

Return PBM binding z-score (reported value) for this sequence: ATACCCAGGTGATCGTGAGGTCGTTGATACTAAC
1.37

Return PBM binding z-score (reported value) for this sequence: CGAACGATGGCATGAGTTGATAGCAAATGCCGAT
-0.377

Return PBM binding z-score (reported value) for this sequence: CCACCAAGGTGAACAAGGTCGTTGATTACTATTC
1.47

Return PBM binding z-score (reported value) for this sequence: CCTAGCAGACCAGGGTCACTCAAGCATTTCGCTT
2.1

Return PBM binding z-score (reported value) for this sequence: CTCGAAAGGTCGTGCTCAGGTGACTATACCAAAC
5.25

Return PBM binding z-score (reported value) for this sequence: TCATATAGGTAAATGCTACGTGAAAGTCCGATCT
0.931

Return PBM binding z-score (reported value) for this sequence: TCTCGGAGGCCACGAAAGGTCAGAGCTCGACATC
3.4

Return PBM binding z-score (reported value) for this sequence: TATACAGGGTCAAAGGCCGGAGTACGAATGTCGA
6.93

Return PBM binding z-score (reported value) for this sequence: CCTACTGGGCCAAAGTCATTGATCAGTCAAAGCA
-0.681

Return PBM binding z-score (reported value) for this sequence: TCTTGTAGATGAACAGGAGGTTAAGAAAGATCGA
0.551
